Target: recombinant human IL-21 (rhIL-21) (human, UniProt Q9HBE4 30-162, limits assumed)
Sequence (Q9HBE4 30-162 limits assumed): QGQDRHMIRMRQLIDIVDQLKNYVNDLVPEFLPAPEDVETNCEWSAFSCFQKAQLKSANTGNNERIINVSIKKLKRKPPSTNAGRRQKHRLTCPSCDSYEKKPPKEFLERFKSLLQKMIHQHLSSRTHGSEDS
Assay: cell-based or functional assay
Measured Property: % pSTAT3+ Jurkat cells, 0.1 nM rhIL-21 + 1.5925 nM antibody (%)

- Binder: "ZAP122 (antibody, human IgG1, V domains shown) VH: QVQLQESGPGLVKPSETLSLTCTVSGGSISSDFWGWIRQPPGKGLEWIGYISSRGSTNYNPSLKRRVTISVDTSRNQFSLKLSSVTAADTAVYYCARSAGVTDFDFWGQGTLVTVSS VL: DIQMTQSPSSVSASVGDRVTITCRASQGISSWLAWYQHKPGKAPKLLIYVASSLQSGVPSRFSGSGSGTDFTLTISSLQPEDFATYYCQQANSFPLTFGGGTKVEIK"
  Value: 9.01
